# Test name: Open-label, fixed sequence single-dose pharmacokinetic study in healthy subjects (Example 7 A)
# Type: in vivo, human
# Condition set: both sexes, human, plasma; single oral administration of 0.06, 0.12 and 0.18 mg modified-release tablets; read-out: median Tmax
# Procedure: A. An open-label, fixed sequence, non-randomized study in two cohorts of healthy male and non-pregnant, non-lactating female subjects was conducted. Two cohorts with twelve subjects in each were enrolled to ensure data in ten evaluable subjects per cohort. […] One or more of the above pharmacokinetic parameters were determined at one or more of the following time points: pre-dose and (referring to hours after administration): 0.5, 1, 1.5, 2, 3, 4, 5, 6, 8, 10, 12, 16, 20, 24, 36, 48, and 72 hours.
Readout name: Tmax

[in] Sample O=C(O)COC[C@H]1CC[C@H](COC(=O)N(c2ccccc2)c2ccc(Cl)cc2)CC1 [Compound 1] — what was its Tmax?
[out] 4 to 10 h

----------
# Test name: Plasma half-life
# Type: in vivo
Readout name: half-life

[in] Sample O=C(O)COC[C@H]1CC[C@H](COC(=O)N(c2ccccc2)c2ccc(Cl)cc2)CC1 — what was its half-life?
[out] ~1440 min
